Values compiled from PubChem BioAssay (NCATS).

Test system: Tov-21-G
PROCEDURE TEXT: Primary qHTS to identify gynecologic anti-cancer compounds using libraries of approved drugs and bioactive compounds (AID 1345084); further: nearly all actives have a fitted effect of over 55% in size
EXPERIMENTAL SETUP: Gynecologic cancer cell panel viability, ATPlite luminescence, 48 h; series mostly up to 57.5 µM
Inconclusive results are not listed. Calls of active or inactive are those of the source. The call rests on the fitted dose curve; in most records, active means well fitted cell-killing curve with a large enough effect; inconclusive means small, poorly fitted or top-dose-only effect, or effect the other way; inactive means flat fitted curve, though single readings scatter. Where a SMILES comes first, the peptide text is derived from it. [ ]: non-standard residue; d: D form. ξ: configuration not given here. ξLac(3-iPr) = CC(C)CC(O)C(=O)O; NMeV = CN[CH](C(=O)O)C(C)C; βAla = NCCC(=O)O
Give one outcome, nothing more. List: T for active, F for inactive

Problem: Per the assay record, what outcome was assigned to CC1CCC2(C=O)C(CO)=CCCC2C1(C)CC(=O)O (centres undefined) ?
Solution: F

Problem: Per the assay record, what outcome was assigned to C/C=C1\[C@H](O[C@@H]2O[C@H](CO)[C@@H](O)[C@H](O)[C@H]2O)OC=C(C(=O)OC)[C@H]1CC(=O)OC[C@H]1O[C@@H](OCCc2ccc(O)cc2)[C@H](O)[C@@H](O)[C@@H]1O ?
Solution: F

Problem: Per the assay record, what outcome was assigned to CC(O)/C=C/C1OC(=O)CC1Nc1ccc(C(=O)O)cc1 (centres undefined) ?
Solution: F

Problem: Per the assay record, what outcome was assigned to COc1c(C)c(OCC(O)C(C)(C)O)cc2c1COC2=O (centres undefined) ?
Solution: F

Problem: Per the assay record, what outcome was assigned to C=C(C(=O)O)[C@H]1C[C@]2(C)[C@@H](O)CC[C@]23O[C@H]1C[C@@H]3C ?
Solution: F

Problem: Per the assay record, what outcome was assigned to C=CC1(C)CC(OC(=O)/C(C)=C\COC(C)=O)C(C(=C)C(=O)O)C(O)C1C(=C)CO (centres undefined) ?
Solution: F

Problem: Per the assay record, what outcome was assigned to CC(C)CC1OC(=O)C2CCCN2C(=O)CCNC(=O)C(Cc2ccccc2)NC(=O)C(C(C)C)N(C)C(=O)C(C(C)C)N(C)C1=O (centres undefined) (cyclo([ξLac(3-iPr)][NMeV][NMeV]F[βAla]P); configuration not given here) ?
Solution: F

Problem: Per the assay record, what outcome was assigned to CC(=O)OC1/C(C)=C/C(=O)C(OC(C)=O)C(C)(C)/C=C/C(C)C(=O)C2(OC(C)=O)CC(C)C(OC(=O)c3ccccc3)C12 (centres undefined) ?
Solution: F

Problem: Per the assay record, what outcome was assigned to COCCN1CCN(Cc2ccc(-c3n[nH]c4c3C(=O)c3c(NC(=O)NN5CCOCC5)cccc3-4)cc2)CC1 ?
Solution: T

Problem: Per the assay record, what outcome was assigned to CC(C)(C)c1ccc(S(=O)(=O)NCc2ccc(C(=O)Nc3cccnc3)cc2)cc1 ?
Solution: T

Problem: Per the assay record, what outcome was assigned to CN[C@H](CC(C)C)C(=O)N[C@H]1C(=O)N[C@@H](CC(N)=O)C(=O)N[C@H]2C(=O)N[C@H]3C(=O)N[C@H](C(=O)N[C@H](C(=O)O)c4cc(O)cc(O)c4-c4cc3ccc4O)[C@H](O[C@H]3C[C@](C)(N)[C@@H](O)[C@H](C)O3)c3ccc(c(Cl)c3)Oc3cc2cc(c3O[C@@H]2O[C@H](CO)[C@@H](O)[C@H](O)[C@H]2O[C@H]2C[C@](C)(NCc3ccc(-c4ccc(Cl)cc4)cc3)[C@@H](O)[C@H](C)O2)Oc2ccc(cc2Cl)[C@H]1O ?
Solution: F

Problem: Per the assay record, what outcome was assigned to CC1(C(=O)O)CCCC2(C)C3=CCC4CC3(CCC12)CC4CO (centres undefined) ?
Solution: F

Problem: Per the assay record, what outcome was assigned to CC(=O)O[C@@H]1[C@@H](OC(=O)/C=C/c2ccccc2)[C@@H](OC(C)=O)[C@H](O[C@H]2[C@@H]3C=CO[C@@H](O[C@@H]4O[C@H](CO)[C@@H](O)[C@H](O)[C@H]4O)[C@@H]3[C@@]3(CO)O[C@@H]23)O[C@H]1C ?
Solution: F

Problem: Per the assay record, what outcome was assigned to CC(C)(C#N)c1ccc(N2C(=O)OCc3cnc4ccc(-c5cnc6ccccc6c5)cc4c32)cc1 ?
Solution: T
